Numbers sourced from PubChem BioAssay AID720541.

Target: C-terminal-binding protein 1 (Homo sapiens) (UniProt Q13363)
Experiment: qHTS for Inhibitors of the Phosphatase Activity of Eya2: Carboxyl-terminal binding protein (CtBP) Counterscreen for Cherry-picked Compounds; also: nearly all actives have a fitted effect of over 65% in size
Conditions: purified protein-protein binding, AlphaScreen, 3 h; series mostly up to 46.1 µM
Among all 1,300 compounds or so, about 420 (32%) were called active. Inconclusive results (about 32%) are left out. Calls follow the shape of the dose curve; as a rule, active = well fitted inhibition curve with a large enough effect; inconclusive = small, poorly fitted or top-dose-only effect; inactive = no such curve, though single readings can be large or run the other way. The list shows a part of the results.
Respond only with the outcome that fits, drawn from active, inactive

Ask | Kindly provide the recorded test outcome for the following compound: "CN(C)c1ccc(/C=C/C=C2/C=Cc3ccccc32)cc1"
Reply | active

Ask | Short answer needed: outcome of this test for "COc1ccc(N(CC(=O)Nc2nc3ccc(C)cc3s2)S(=O)(=O)c2c(C)nn(C)c2C)cc1" ?
Reply | inactive

Ask | What did the test return for "CS(=O)(=O)c1ccc(C(=O)Nc2nc(-c3ccco3)c(-c3ccco3)s2)cc1" ?
Reply | active

Ask | Just curious, what result did "CC1=C/C(=C\c2ccc(N(C)C)cc2)c2ccccc21" get here?
Reply | active

Ask | What did this assay record as the result for "CCN(CC)c1ccc(/C=C2\C=Cc3ccccc32)cc1" ?
Reply | active

Ask | Tell me the recorded outcome of this test for "CC12CC3(C)CC(C)(C1)CC(C(=O)NC(=S)N1CCOCC1)(C2)C3" .
Reply | inactive

Ask | Status in this test for "Nc1n[nH]c2cc(=O)n(-c3ccc(Cl)cc3)nc12" ?
Reply | inactive

Ask | For "O=C(CSc1ccc2nnc(-c3ccccn3)n2n1)Nc1ccccc1C(F)(F)F" , what call appears in the results of this test?
Reply | active

Ask | # lookup: test call for "COc1ccccc1-c1noc2c1C(=O)N(Cc1cn(-c3ccc(Cl)cc3)nn1)CC2"
Reply | inactive

Ask | // outcome(item) with item = "Cc1ccc(O)c(C(=O)c2cnc3c(c2)c(-c2ccc(F)cc2)c(C#N)c(=O)n3C)c1"
Reply | inactive
